This collection of values is drawn from patent US20260193326A1.

- Subject Of Test: T1, AAV5
- T1 construct: also called adeno-associated virus serotype 5
- Assay Comment: SPR, AAV on CM5 chip;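 note: surface plasmon resonance with AAV amine-coupled to the chip as ligand, nanobodies injected as analyte over a concentration series, rate constants and affinity fitted from binding curves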
Response key: true means koff >= 0.001 s⁻¹; false means koff < 0.001 s⁻¹.

# example entries with known answers
- A4-014 (VHH) VHH: VQLQESGGGLVQPGGSLRLSCAASGSRFSINSMGWYRQAPGKQRELVATVTRGGNTNYAGSVKGRFTISRDNAKNTVYLQMNSLRPEDTAVYYCHVDEVRESSWTTSNLWGQGTQVTVSS: true
- A4-025 (VHH) VHH: VQLQESGGGLVQPGGSLRLSCAASGSNFRINTMGWYRQAPGKQRELVATVTRGGSTNYADSVKGRFTISRDNPKDTVYLQMNSLRPEDTAVYYCHVDEVRESSWTTSNLWGQGTQVTVSS: false
- A4-016 (VHH) VHH: VQLQESGGGLVQPGGSLRLSCAASGSIFSINLMGWYRQAPGKQRELVATITPGGNTNYAGSVKGRFTISRDNAKNTVYLQMNSLRPEDTAVYYCHVDEVRQSSWTTSNLWGQGTQVTVSS: true

Q. Check this binder for koff at or above 0.001 s⁻¹: A4-007 (VHH) VHH: VQLQESGGGLVQAGGSLRLSCAASGRHFSINTMGWYRQAPGKQRELVAAVTRGGSTNYAGSVKGRFTISRDNAKNTVYLQMNSLRPEDTAVYYCHIDEVRQSSWTTSNIWGQGTQVTVSS
A. true

Q. For A4-006 (VHH) VHH: VQLQESGGGLVQPGGSLRLSCAASGRHFSINTMGWYRQAPGKQRELVAAVTRGGSTNYAGSVKGRFTISRDNAKNTVYLQMNSLRPEDTAVYYCHIDEVRQSSWTTSNIWGQGTQVTVSS then?
A. false

Q. For A4-042 (VHH) VHH: VQLQESGGGLVQPGGSLRLSCAASGRAFSINTMGWYRQAPGKQRELVATVTRDGSTNYADSVKGRFTISRDNAKNTVYLQMNSLRPEDTAVYYCHVDEVRQSSWTTSNLWGQGTQVTVSS then?
A. true

Q. For A4-013 (VHH) VHH: VQLQESGGGLVQPGGSLRLSCAASGSRFSINSMGWYRQAPGKQRELVATVTRGGNTNYADSVKGRFTISRDNAKNTVYLQMNSLRPEDTAVYYCHVDEVRESSWTTSNLWGQGTQVTVSS then?
A. false
